conditions: in ethanol, 303.15 K
Assay Endpoint: solubility (mole fraction)
Numbers only.

Given the compound `O=P1(O)Oc2ccc3ccccc3c2-c2c(ccc3ccccc23)O1` , what is its reported solubility (mole fraction)?
0.00511

====

conditions: in n-butanol, 298.15 K
Assay Endpoint: solubility (mole fraction)
One number for each entry.

Recorded solubility (mole fraction) for `O=P1(O)Oc2ccc3ccccc3c2-c2c(ccc3ccccc23)O1` , please?
0.0073

====

conditions: in n-propanol, 288.15 K
Assay Endpoint: solubility (mole fraction)
Answers are plain numbers.

Quick one: solubility (mole fraction) of `O=P1(O)Oc2ccc3ccccc3c2-c2c(ccc3ccccc23)O1` ?
0.00484

====

details: in ethanol, 298.15 K
Assay Endpoint: solubility (mole fraction)
Answers are plain numbers.

Need solubility (mole fraction) of `O=P1(O)Oc2ccc3ccccc3c2-c2c(ccc3ccccc23)O1` , thanks.
0.00489

====

conditions: in n-propanol, 298.15 K
Assay Endpoint: solubility (mole fraction)
Answers are plain numbers.

Can you share its solubility (mole fraction)? I mean this compound: `O=P1(O)Oc2ccc3ccccc3c2-c2c(ccc3ccccc23)O1`
0.00588

====

details: in ethyl acetate, 323.15 K
Assay Endpoint: solubility (mole fraction)
One number for each entry.

I have this compound here, `O=P1(O)Oc2ccc3ccccc3c2-c2c(ccc3ccccc23)O1` , and I need its recorded solubility (mole fraction).
0.000594

====

conditions: in n-propanol, 318.15 K
Assay Endpoint: solubility (mole fraction)
Numbers only.

Endpoint output: solubility (mole fraction) of `O=P1(O)Oc2ccc3ccccc3c2-c2c(ccc3ccccc23)O1` . Value?
0.00942

====

conditions: in isobutanol, 288.15 K
Assay Endpoint: solubility (mole fraction)

GET /values?readout=solubility (mole fraction)&item= `O=P1(O)Oc2ccc3ccccc3c2-c2c(ccc3ccccc23)O1`
0.0035

====

settings: in ethyl acetate, 333.15 K
Assay Endpoint: solubility (mole fraction)
Give bare numbers.

Would you kindly share the measured solubility (mole fraction) for `O=P1(O)Oc2ccc3ccccc3c2-c2c(ccc3ccccc23)O1` ?
0.000645

====

conditions: in isobutanol, 328.15 K
Assay Endpoint: solubility (mole fraction)
One number for each entry.

Reported solubility (mole fraction), compound `O=P1(O)Oc2ccc3ccccc3c2-c2c(ccc3ccccc23)O1` : ____
0.00672

====

details: in ethyl acetate, 308.15 K
Assay Endpoint: solubility (mole fraction)
Answers are plain numbers.

Item `O=P1(O)Oc2ccc3ccccc3c2-c2c(ccc3ccccc23)O1` has what recorded solubility (mole fraction)?
0.000491

====

settings: in ethyl acetate, 288.15 K
Assay Endpoint: solubility (mole fraction)
Numbers only.

Name the reported solubility (mole fraction) value associated with the molecule `O=P1(O)Oc2ccc3ccccc3c2-c2c(ccc3ccccc23)O1`
0.000286

====

details: in ethyl acetate, 328.15 K
Assay Endpoint: solubility (mole fraction)
One number for each entry.

Give its solubility (mole fraction) value. Item: `O=P1(O)Oc2ccc3ccccc3c2-c2c(ccc3ccccc23)O1`
0.000618

====

conditions: in isopropanol, 318.15 K
Assay Endpoint: solubility (mole fraction)
Give bare numbers.

For `O=P1(O)Oc2ccc3ccccc3c2-c2c(ccc3ccccc23)O1` , what is its reported solubility (mole fraction)?
0.00563

====

details: in methanol, 303.15 K
Assay Endpoint: solubility (mole fraction)
Numbers only.

Need solubility (mole fraction), item `O=P1(O)Oc2ccc3ccccc3c2-c2c(ccc3ccccc23)O1`
0.00411

====

settings: in ethanol, 333.15 K
Assay Endpoint: solubility (mole fraction)
Give bare numbers.

Name the recorded solubility (mole fraction) for `O=P1(O)Oc2ccc3ccccc3c2-c2c(ccc3ccccc23)O1` .
0.00664
